# System: HCT-116
# Protocol summary: Anticancer activity against human HCT-116 cells assessed as cell growth inhibition
# Type: functional, cell-based
Quantity: IC50 (nM)
Please state the figure in nM; there is no need to write the unit.

Incoming: Return IC50 measured with HCT-116 given this compound: CN(CCCNC(=O)c1ccc2nc3c(c(Cl)c2c1)CCCC3)Cc1ccccc1
Outgoing: 2000

###

# System under test: Ubiquitin carboxyl-terminal hydrolase 14 (Homo sapiens, UniProt P54578)
# Sequence (P54578 whole entry): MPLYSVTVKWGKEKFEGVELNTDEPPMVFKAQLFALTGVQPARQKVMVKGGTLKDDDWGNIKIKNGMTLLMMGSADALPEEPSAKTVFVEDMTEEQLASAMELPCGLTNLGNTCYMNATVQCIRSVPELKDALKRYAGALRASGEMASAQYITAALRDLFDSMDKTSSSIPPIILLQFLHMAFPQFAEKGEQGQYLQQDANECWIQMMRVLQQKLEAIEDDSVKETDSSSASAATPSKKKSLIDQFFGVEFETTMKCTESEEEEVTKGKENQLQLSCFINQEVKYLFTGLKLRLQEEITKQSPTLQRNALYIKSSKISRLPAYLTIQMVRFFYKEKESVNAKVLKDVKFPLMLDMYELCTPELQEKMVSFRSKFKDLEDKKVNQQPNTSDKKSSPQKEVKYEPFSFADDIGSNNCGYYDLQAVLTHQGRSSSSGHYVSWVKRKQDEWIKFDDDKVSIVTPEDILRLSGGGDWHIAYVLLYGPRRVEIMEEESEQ
Quantity: pIC50
Keep it numeric: pIC50 is minus log10 of the concentration in mol/L.

Incoming: State the recorded pIC50 for this entry: Cc1cc(C(=O)CN2CCCCC2)c(C)n1-c1ccc(F)cc1
Outgoing: 6.17
